Measurement protocol: Volume of distribution at steady state in cynomolgus monkey at 1 mg/kg, iv or 3 mg/kg, po
Type: ADME, organism-based, Macaca fascicularis
Protocol conditions: in vivo, read-out: Vdss
Measurement kind: Vd (L/kg)
Numbers only, in L/kg.

GET /values?readout=Vd&item= CNC(=O)c1c(-c2ccc(F)cc2)oc2nc(CCC(F)(F)F)c(-c3cccc(C(=O)NC(C)(C)c4ncon4)c3)cc12 2.8

----------
Measurement protocol: Drug uptake in rat liver at 6 mg/kg, po after 24 hrs
Type: ADME, organism-based
Protocol conditions: read-out: Drug uptake
Measurement kind: concentration at 24 h
State the result as a value with its unit after it.

CNC(=O)c1c(-c2ccc(F)cc2)oc2nc(CCC(F)(F)F)c(-c3cccc(C(=O)NC45CC(C4)C5)c3)cc12: 900 nM

Would you kindly share the measured concentration at 24 h for CCNc1nc2oc(-c3ccc(F)cc3)c(C(=O)NC)c2cc1-c1cccc(C(=O)NC(C)(C)C)c1 ? 1600 nM

----------
Measurement protocol: AUC in rat at 6 mg/kg, po
Assay type: ADME, organism-based
Protocol conditions: in vivo
Give AUC for every item shown.
One number for each entry, in µM·h.

CNC(=O)c1c(-c2ccc(F)cc2)oc2nc(CCC(F)(F)F)c(-c3cccc(C(=O)NC45CC(C4)C5)c3)cc12: 10

Report AUC for CCNc1nc2oc(-c3ccc(F)cc3)c(C(=O)NC)c2cc1-c1cccc(C(=O)NC(C)(C)C)c1 please. 18

----------
For each record, write down the corresponding Cmax.
Measurement protocol: Cmax in rat at 6 mg/kg, po
Type: ADME, organism-based
Design: dose 6 mg/kg, route oral
Protocol conditions: in vivo
One number for each entry, in nM.

Examples from the recorded data:
CNC(=O)c1c(-c2ccc(F)cc2)oc2nc(CCC(F)(F)F)c(-c3cccc(C(=O)NC45CC(C4)C5)c3)cc12: 900
CNC(=O)c1c(-c2ccc(F)cc2)oc2nc(CCC(F)(F)F)c(-c3cccc(C(=O)NC(C)(C)c4ncon4)c3)cc12: 1100
CCNc1nc2oc(-c3ccc(F)cc3)c(C(=O)NC)c2cc1-c1cccc(C(=O)NC(C)(C)C)c1: 600

Now turn to the next compound.
Fill in the blank: the reported Cmax of CNC(=O)c1c(-c2ccc(F)cc2)oc2nc(NCC(F)(F)F)c(-c3cccc(C(=O)NC(C)(C)c4ncon4)c3)cc12 is ____. 600

----------
Measurement protocol: Volume of distribution at steady state in dog at 1 mg/kg, iv or 3 mg/kg, po
Format: ADME, organism-based, Canis lupus familiaris
Protocol conditions: in vivo, read-out: Vdss
Measurement kind: Vd (L/kg)
Numbers only, in L/kg.

Tell me the measured Vd of CNC(=O)c1c(-c2ccc(F)cc2)oc2nc(CCC(F)(F)F)c(-c3cccc(C(=O)NC(C)(C)c4ncon4)c3)cc12 , please. 3.3
